Data credit: ChEMBL document CHEMBL3758092

test: Plasma concentration in rat at 10 mg/kg, po after 6 hrs; type: ADME, organism-based
QUANTITY: concentration at 6 h (nM)
Report as a plain number; the unit nM is understood.

CCN(C)S(=O)(=O)NC(=O)c1ccc2c(C3CCCCC3)c3n(c2c1)CC1(C(=O)N2C4CCC2CN(C)C4)CC1c1cc(OC)ccc1-3 (racemic)	178

Moving on to the next compound.
query: Need concentration at 6 h, item COc1ccc2c(c1)C1CC1(C(=O)N1C3CCC1CN(C)C3)Cn1c-2c(C2CCCCC2)c2ccc(C(=O)NS(=O)(=O)N3CCC3)cc21 (racemic)
result: 20

----------
experiment: Clearance in rat at 10 mg/kg, po; type: ADME, organism-based; details: in vivo
Consider the following compounds and their measured CL/F readings.
Report as a plain number; the unit mL/min/kg is understood.

COc1ccc2c(c1)C1CC1(C(=O)N1C3CCC1CN(C)C3)Cn1c-2c(C2CCCCC2)c2ccc(C(=O)NS(=O)(=O)CC3CCC3)cc21 (racemic)	13.3

query: Need CL/F, item COc1ccc2c(c1)C1CC1(C(=O)N1C3CCC1CN(C)C3)Cn1c-2c(C2CCCCC2)c2ccc(C(=O)NS(=O)(=O)C3CC3)cc21 (racemic)
result: 26.9

query: Another compound: COc1ccc2c(c1)C1CC1(C(=O)N1C3CCC1CN(C)C3)Cn1c-2c(C2CCCCC2)c2ccc(C(=O)NS(=O)(=O)C3CCCC3)cc21 (racemic)
result: 7.7

query: Another compound: COc1ccc2c(c1)C1CC1(C(=O)N1C3CCC1CN(C)C3)Cn1c-2c(C2CCCCC2)c2ccc(C(=O)NS(=O)(=O)C3CCC3)cc21 (racemic)
result: 5.2

query: Another compound: COc1ccc2c(c1)C1CC1(C(=O)N1C3CCC1CN(C)C3)Cn1c-2c(C2CCCCC2)c2ccc(C(=O)NS(=O)(=O)C(C)(C)C)cc21 (racemic)
result: 13.5

query: Another compound: CCS(=O)(=O)NC(=O)c1ccc2c(C3CCCCC3)c3n(c2c1)CC1(C(=O)N2C4CCC2CN(C)C4)CC1c1cc(OC)ccc1-3 (racemic)
result: 40
